Biological target: VAV1 (Homo sapiens, UniProt P15498+Q96SW2)
Construct: A heterozygous VAV1 C-terminal HiBiT knock-in pool was generated at Monte Rosa Therapeutics from a clonal Jurkat cell; endogenous in cells; host or cells: Jurkat clone stably expressing LgBiT, homozygous GSPT1-G575N; heterozygous VAV1-HiBiT knock-in pool
Assay: VAV1 degradation activity, VAV1-HiBiT knock-in Jurkat luminescence assay (Example A, Table 1)
Assay type: cell-based
Details: VAV1-HiBiT knock-in Jurkat cells, luminescence read at 6 and 24 hours; read-out: VAV1 DC50 (nM), class
Listed here are compounds together with their documented DC50.

{"compound": "CC1CCC(=O)N(c2ccc(-c3cccc(C4CCC(=O)NC4=O)c3Cl)cc2)C1 (centres unmarked) [Compound 314]", "system": "VAV1 (Homo sapiens, UniProt P15498+Q96SW2)", "DC50": "≤ 100 nM"}
{"compound": "O=C1CCC(c2cccc(-c3ccc(OCc4cccnc4)cc3)c2Cl)C(=O)N1 (centres unmarked) [Compound 123]", "system": "VAV1 (Homo sapiens, UniProt P15498+Q96SW2)", "DC50": "≤ 100 nM"}
{"compound": "O=C1CCC(c2cccc(-c3cnc(Cc4ncco4)c(F)c3)c2Cl)C(=O)N1 (centres unmarked) [Compound 370]", "system": "VAV1 (Homo sapiens, UniProt P15498+Q96SW2)", "DC50": "> 1000 nM"}
{"compound": "O=C1CCC(c2cccc(-c3ccc(N4C(=O)CCn5nccc54)cc3)c2Cl)C(=O)N1 (centres unmarked) [Compound 330]", "system": "VAV1 (Homo sapiens, UniProt P15498+Q96SW2)", "DC50": "100 to 1000 nM"}
{"compound": "O=C1CCC(c2cccc(-c3ccc(NC(=O)c4ccon4)cc3)c2Cl)C(=O)N1 (centres unmarked) [Compound 229]", "system": "VAV1 (Homo sapiens, UniProt P15498+Q96SW2)", "DC50": "≤ 100 nM"}
{"compound": "CC1Oc2ccncc2N(Cc2ccc(-c3cccc(C4CCC(=O)NC4=O)c3Cl)cc2)C1=O (centres unmarked) [Compound 254]", "system": "VAV1 (Homo sapiens, UniProt P15498+Q96SW2)", "DC50": "≤ 100 nM"}
{"compound": "O=C1CCC(c2cccc(-c3ccc(-n4cc(C(F)(F)F)ccc4=O)cc3)c2Cl)C(=O)N1 (centres unmarked) [Compound 237]", "system": "VAV1 (Homo sapiens, UniProt P15498+Q96SW2)", "DC50": "≤ 100 nM"}
{"compound": "O=C1CCC(c2cccc(-c3ccc(Cc4cccnc4)cc3)c2Cl)C(=O)N1 (centres unmarked) [Compound 374]", "system": "VAV1 (Homo sapiens, UniProt P15498+Q96SW2)", "DC50": "≤ 100 nM"}

----------
Biological target: VAV1 (Homo sapiens, UniProt P15498+Q96SW2)
Construct: A heterozygous VAV1 C-terminal HiBiT knock-in pool was generated at Monte Rosa Therapeutics from a clonal Jurkat cell; endogenous in cells; host or cells: Jurkat clone stably expressing LgBiT, homozygous GSPT1-G575N; heterozygous VAV1-HiBiT knock-in pool
Assay: VAV1 degradation activity, VAV1-HiBiT knock-in Jurkat luminescence assay (Example A, Table 1)
Assay type: cell-based
Conditions: VAV1-HiBiT knock-in Jurkat cells, luminescence read at 6 and 24 hours; read-out: VAV1 DC50
measured parameter: log10 of DC50 (log10 of the value in nM)

{"compound": "O=C1CCC(c2cccc(-c3ccc(Cc4nccc(C5CC5)n4)cc3)c2Cl)C(=O)N1 (centres unmarked) [Compound 344]", "system": "VAV1 (Homo sapiens, UniProt P15498+Q96SW2)", "meas value": 0.84}
{"compound": "CC1(C)CCC(=O)N1c1ccc(-c2cccc(C3CCC(=O)NC3=O)c2Cl)cc1 (centres unmarked) [Compound 413]", "system": "VAV1 (Homo sapiens, UniProt P15498+Q96SW2)", "meas value": 0.69}
{"compound": "Cn1ccc(COc2ccc(-c3cccc(C4CCC(=O)NC4=O)c3Cl)cc2)n1 (centres unmarked) [Compound 154]", "system": "VAV1 (Homo sapiens, UniProt P15498+Q96SW2)", "meas value": 1.27}
{"compound": "Cn1ccc(CCc2ccc(-c3cccc(C4CCC(=O)NC4=O)c3Cl)cc2)n1 (centres unmarked) [Compound 194]", "system": "VAV1 (Homo sapiens, UniProt P15498+Q96SW2)", "meas value": 1.26}
{"compound": "O=C1CCC(c2cccc(-c3ccc(CN4Cc5cnccc5C4=O)cc3)c2Cl)C(=O)N1 (centres unmarked) [Compound 300]", "system": "VAV1 (Homo sapiens, UniProt P15498+Q96SW2)", "meas value": 1.23}
{"compound": "O=C1CCC(c2cccc(-c3ccc(N4CCn5nccc5C4=O)cc3)c2Cl)C(=O)N1 (centres unmarked) [Compound 321]", "system": "VAV1 (Homo sapiens, UniProt P15498+Q96SW2)", "meas value": 1.35}
{"compound": "O=C1CCC(c2cccc(-c3ccc(CN4Cc5cccnc5C4=O)cc3)c2Cl)C(=O)N1 (centres unmarked) [Compound 299]", "system": "VAV1 (Homo sapiens, UniProt P15498+Q96SW2)", "meas value": 1.96}
{"compound": "Nc1cc(-c2cccc(C3CCC(=O)NC3=O)c2Cl)ccc1Cl (centres unmarked) [Compound 138]", "system": "VAV1 (Homo sapiens, UniProt P15498+Q96SW2)", "meas value": 2.78}
{"compound": "Nc1ncn(Cc2ccc(-c3cccc(C4CCC(=O)NC4=O)c3Cl)cc2)n1 (centres unmarked) [Compound 110]", "system": "VAV1 (Homo sapiens, UniProt P15498+Q96SW2)", "meas value": 1.35}
{"compound": "O=C1CCC(c2cccc(-c3ccc(N4C(=O)CCCC45CC5)nc3)c2Cl)C(=O)N1 (centres unmarked) [Compound 389]", "system": "VAV1 (Homo sapiens, UniProt P15498+Q96SW2)", "meas value": 1.62}
{"compound": "O=C1CCC(c2cccc(-c3ccc(CN4CC(C(F)(F)F)OCC4=O)cc3)c2Cl)C(=O)N1 (centres unmarked) [Compound 258]", "system": "VAV1 (Homo sapiens, UniProt P15498+Q96SW2)", "meas value": 1.10}
{"compound": "O=C1CCC(c2cccc(-c3ccc(OCc4cc[nH]n4)cc3)c2Cl)C(=O)N1 (centres unmarked) [Compound 203]", "system": "VAV1 (Homo sapiens, UniProt P15498+Q96SW2)", "meas value": 1.47}
{"compound": "O=C1CCC(c2cccc(-c3ccc(N4CCN(CC(F)(F)F)CC4=O)cc3)c2Cl)C(=O)N1 (centres unmarked) [Compound 445]", "system": "VAV1 (Homo sapiens, UniProt P15498+Q96SW2)", "meas value": 1.06}
{"compound": "Cn1ccc(COc2ccc(-c3ccc(Cl)c(C4CCC(=O)NC4=O)c3F)cc2)n1 (centres unmarked) [Compound 145]", "system": "VAV1 (Homo sapiens, UniProt P15498+Q96SW2)", "meas value": 4.14}
{"compound": "Cc1cc(-c2cccc(C3CCC(=O)NC3=O)c2Cl)ccc1OCCN1CCOCC1 (centres unmarked) [Compound 155]", "system": "VAV1 (Homo sapiens, UniProt P15498+Q96SW2)", "meas value": 1.17}
{"compound": "O=C1CCC(c2cccc(-c3ccc(N4CCCC(F)C4=O)cc3)c2Cl)C(=O)N1 (centres unmarked) [Compound 323]", "system": "VAV1 (Homo sapiens, UniProt P15498+Q96SW2)", "meas value": 1.03}
{"compound": "O=C1CC[C@H](c2cccc(-c3ccc(Cn4ccccc4=O)cc3)c2Cl)C(=O)N1 [Compound 201]", "system": "VAV1 (Homo sapiens, UniProt P15498+Q96SW2)", "meas value": 2.31}
